Experiment: Cytometry Cell-Based qHTS for Inhibitors of the mTORC1 Signaling Pathway in MEF cells (AID 2668);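 also: Tsc2-/- p53-/- mouse embryonic fibroblasts stably re-expressing wild-type Tsc2; percent cells positive for phospho-rpS6 Ser235/236 relative to propidium iodide stain; plate controls were DMSO wells for no effect and 7.5 nM rapamycin control wells for full effect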
Details: mTORC1 pathway readout; series mostly up to 38.3 µM
Results filed as inconclusive are left out. Activity calls are given as the source filed them. Calls follow the shape of the dose curve; as a rule, active = well fitted inhibition curve with a large enough effect; inconclusive = small, poorly fitted or top-dose-only effect; inactive = flat fitted curve, though single readings scatter.
MEASURED_ENDPOINT: outcome

Observe how each entry below is paired with its result.
COMPOUND | MEASURED_ENDPOINT | VALUE_OBSERVED
CCCN(CCC)C1Cc2cc(OC)c(OC)cc2C1 | outcome | inactive
CC(N)c1cccc(Cl)c1Cl (stereo unspecified) | outcome | inactive
CCCN1CC[C@@H]2c3cc(O)ccc3CC[C@@H]21 | outcome | inactive
CCS(=O)(=O)Nc1cccc(C(=C2CCCCC2)c2cnc[nH]2)c1 | outcome | inactive
CCN1C[C@@]2(COC)C3[C@@H](OC)C4[C@@H]1C3([C@@H]1C[C@]3(O)[C@H](OC(=O)c5ccccc5)[C@@H]1[C@]4(OC(C)=O)[C@@H](O)[C@@H]3OC)[C@H](OC)C[C@H]2O | outcome | inactive
CC(=O)NBr | outcome | inactive
CC(C)[C@@]1(NC(=O)[C@@H]2C[C@@H]3c4cccc5[nH]cc(c45)C[C@H]3N(C)C2)O[C@@]2(O)[C@@H]3CCCN3C(=O)[C@H](Cc3ccccc3)N2C1=O | outcome | inactive
Cc1o[nH]c(=O)c1CC(N)C(=O)O (stereo unspecified) | outcome | inactive
OCc1cnc[nH]1 | outcome | inactive
C=CCN1CC[C@]23c4c5ccc(O)c4O[C@H]2/C(=N/NC(=O)c2ccccc2)CC[C@@]3(O)[C@H]1C5 | outcome | inactive

Please report the recorded outcome for C[N+]1(C)CCN(c2ccccc2)CC1 .
inactive

NCCCP(=O)(O)O ?
inactive

And for Cc1cc([C@@H]2CCCN2C)on1 ?
inactive

Then what about the compound NC(N)=Nc1ccc2[nH]c3c(c2c1)C[C@@]1(O)[C@H]2Cc4ccc(O)c5c4[C@@]1(CCN2CC1CC1)[C@H]3O5 ?
inactive

Follow-up entry: Clc1cc(I)cc(Cl)c1NC1=NCCN1
inactive

Likewise for O=S1(=O)N(CCN2CC=C(c3c[nH]c4cc(F)ccc34)CC2)c2cccc3c2N1CCC3 ?
inactive

Same question for CCCn1c(=O)c2[nH]c(C3CCCC3)nc2n(CCCOC(=O)c2ccc(S(=O)(=O)F)cc2)c1=O please.
inactive

Item: OC1CCCCC1N1CCC(c2ccccc2)CC1 (stereo unspecified)
inactive

And what about the compound NNC(=O)c1ccc(O)cc1 ?
inactive

Next up: O=C1CC[C@@]2(O)C3Cc4ccc(O)c5c4C2(CCN3CC2CC2)[C@H]1O5 (stereo partly specified)
inactive

Okay, and CC(C)(O)[C@@H]1C2OC(=O)[C@@H]1[C@]1(O)C[C@H]3O[C@]34C(=O)O[C@H]2[C@]14C (tested in a mixture with another compound) ?
inactive

----------
Assay: Nrf2 qHTS screen for inhibitors: Validation (AID 493153)
Conditions: A549 ARE-Fluc reporter, 18-24 h; measured here: cytotoxicity max response
Inconclusive results are not listed.
MEASURED_ENDPOINT: viability change (%)
Report the figure in % without appending any unit label.

Look up viability change: CC(N)Cc1c[nH]c2ccc(O)cc12 (stereo unspecified)
-2.01

How about C[N+](C)(C)CC#CCN1CCCC1=O ?
2.69

Subsequent entry: COc1cc(CC(C)N)c(OC)cc1I (stereo unspecified)
-12.3

Lookup CCCN1CC[C@@H]2c3cc(O)ccc3CC[C@@H]21
9.01

Record: C=CCN1CC[C@]23c4c5ccc(O)c4O[C@H]2/C(=N/NC(=O)c2ccccc2)CC[C@@]3(O)[C@H]1C5
7.77

Further, for O=S1(=O)N(CCN2CC=C(c3c[nH]c4cc(F)ccc34)CC2)c2cccc3c2N1CCC3 ?
-15.7

Provenance of the data: PubChem BioAssay (NCATS)
